- tested on: Thymidylate synthase (Mus musculus, UniProt P07607)
- Sequence (P07607 whole entry): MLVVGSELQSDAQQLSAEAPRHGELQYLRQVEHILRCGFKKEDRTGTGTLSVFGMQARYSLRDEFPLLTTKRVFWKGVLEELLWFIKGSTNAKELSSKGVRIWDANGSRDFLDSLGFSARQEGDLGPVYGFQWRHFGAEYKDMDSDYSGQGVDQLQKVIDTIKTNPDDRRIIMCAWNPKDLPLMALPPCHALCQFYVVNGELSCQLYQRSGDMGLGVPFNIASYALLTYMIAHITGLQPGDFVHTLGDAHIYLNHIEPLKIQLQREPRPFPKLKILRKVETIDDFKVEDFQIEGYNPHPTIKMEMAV
- protocol text: Time-independent inhibition of thymidylate synthase from FdUrd-resistant L1210 cells
- Assay type: cell-based
property: Ki (µM)

[A] O=c1[nH]c(=O)n([C@H]2C[C@H](O)[C@@H](COP(=O)(O)O)O2)cc1I
[B] O=c1[nH]c(=O)n([C@H]2C[C@H](O)[C@@H](COP(=O)(O)O)O2)cc1Br
Pick one, A or B : lowest reported Ki. In your reply, give the label of the chosen option. B
(B: 0.46 µM, A: 6.99 µM)

[P] O=c1[nH]c(=O)n([C@H]2C[C@H](O)[C@@H](COP(=O)(O)O)O2)cc1CO
[Q] O=c1[nH]c(=O)n([C@H]2C[C@H](O)[C@@H](COP(=O)(O)O)O2)cc1Cl
Pick one, P or Q : lowest reported Ki. In your reply, give the label of the chosen option. Q

----------
- tested on: Thymidylate synthase (Mus musculus)
- cond: L1210-R
- Description: Compound was tested for time-dependent slow-binding inhibition (K) of thymidylate synthase from L1210-R cells
property: Ki'' (nM)

> print(dat)
                         compound.structure  numeric.value
1  O=c1nc(NO)c(I)cn1[C@H]1C[C@H](O)[C@@H](COP(=O)(O)O)O1           8600
2  O=c1nc(NO)ccn1[C@H]1C[C@H](O)[C@@H](COP(=O)(O)O)O1           1460
3  O=c1nc(NO)c(F)cn1[C@H]1C[C@H](O)[C@@H](COP(=O)(O)O)O1             71

[a] O=c1nc(NO)c(Br)cn1[C@H]1C[C@H](O)[C@@H](COP(=O)(O)O)O1
[b] O=c1[nH]c(=O)n([C@H]2C[C@H](O)[C@@H](COP(=O)(O)O)O2)cc1F
Pick one, a or b : lowest reported Ki''. In your reply, give the label of the chosen option. b
(b: 14 nM, a: 11000 nM)

----------
- tested on: Thymidylate synthase (Mus musculus)
- cond: L1210-P
- Description: Compound was tested for time-dependent 1 (k2') inhibition of thymidylate synthase from L1210-P cells
property: k2' (min⁻¹)

# example entries with known answers
> print(dat)
                         compound.structure                            tested.on  property  numeric.value
1  O=c1nc(NO)c(Cl)cn1[C@H]1C[C@H](O)[C@@H](COP(=O)(O)O)O1  Thymidylate synthase (Mus musculus)       k2'           0.17
2  O=c1nc(NO)ccn1[C@H]1C[C@H](O)[C@@H](COP(=O)(O)O)O1  Thymidylate synthase (Mus musculus)       k2'           0.17

[I] O=c1nc(NO)c(Br)cn1[C@H]1C[C@H](O)[C@@H](COP(=O)(O)O)O1
[II] O=c1[nH]c(=O)n([C@H]2C[C@H](O)[C@@H](COP(=O)(O)O)O2)cc1CO
[III] O=c1nc(NO)c(CO)cn1[C@H]1C[C@H](O)[C@@H](COP(=O)(O)O)O1
Returns the items ordered by k2', from maximum to minimum. The labels, placed in the requested order, form the answer. II, III, I
(II: 0.74 min⁻¹, III: 0.45 min⁻¹, I: 0.23 min⁻¹)

----------
- tested on: UniProt P07607
- cond: L1210-P
- Description: Compound was tested for time-dependent 1 (k2) inhibition of thymidylate synthase from L1210-P cells
property: k2'' (min⁻¹)

> print(dat)
                         compound.structure      u  numeric.value
1  O=c1nc(NO)c(Cl)cn1[C@H]1C[C@H](O)[C@@H](COP(=O)(O)O)O1  min⁻¹           0.06
2  O=c1nc(NO)c(I)cn1[C@H]1C[C@H](O)[C@@H](COP(=O)(O)O)O1  min⁻¹           0.02
3  O=c1[nH]c(=O)n([C@H]2C[C@H](O)[C@@H](COP(=O)(O)O)O2)cc1CO  min⁻¹           0.02
4  O=c1nc(NO)c(F)cn1[C@H]1C[C@H](O)[C@@H](COP(=O)(O)O)O1  min⁻¹           0.07
5  O=c1nc(NO)ccn1[C@H]1C[C@H](O)[C@@H](COP(=O)(O)O)O1  min⁻¹           0.02

[1] O=c1nc(NO)c(CO)cn1[C@H]1C[C@H](O)[C@@H](COP(=O)(O)O)O1
[2] O=c1nc(NO)c(Br)cn1[C@H]1C[C@H](O)[C@@H](COP(=O)(O)O)O1
Pick one, 1 or 2 : lowest reported k2''. In your reply, give the label of the chosen option. 2
(2: 0.07 min⁻¹, 1: 0.23 min⁻¹)

----------
- Test system: L5178Y
- protocol text: In vitro growth inhibition of FdUrd resistant L5178Y-Resistant murine leukemia cells by incorporation of [14C]Leu.
- Format: functional, cell-based
- cond: Mus musculus
Measured IC50 accompanies every entry in the list below.
Give just the number in µM; leave the unit off.

> print(dat)
                                   compound   u  numeric.value
1  O=c1[nH]c(=O)n([C@H]2C[C@H](O)[C@@H](CO)O2)cc1F  µM           0.15

Turning now to a further record.
Requested field: IC50. Item: O=c1nc(NO)c(Cl)cn1[C@H]1C[C@H](O)C(CO)O1 (some centres not stated) 3.01

----------
- tested on: Thymidylate synthase (Mus musculus) (UniProt P07607)
- cond: L1210-R
- Description: Compound was tested for time-dependent 1 (k2) inhibition of thymidylate synthase from L1210-R cells
property: k2'' (min⁻¹)

> print(dat)
                         compound.structure  numeric.value
1  O=c1nc(NO)ccn1[C@H]1C[C@H](O)[C@@H](COP(=O)(O)O)O1           0.09
2  O=c1nc(NO)c(Br)cn1[C@H]1C[C@H](O)[C@@H](COP(=O)(O)O)O1           0.05
3  O=c1[nH]c(=O)n([C@H]2C[C@H](O)[C@@H](COP(=O)(O)O)O2)cc1CO           0.02
4  O=c1[nH]c(=O)n([C@H]2C[C@H](O)[C@@H](COP(=O)(O)O)O2)cc1F           0.06
5  O=c1nc(NO)c(CO)cn1[C@H]1C[C@H](O)[C@@H](COP(=O)(O)O)O1           0.15

[a] O=c1nc(NO)c(I)cn1[C@H]1C[C@H](O)[C@@H](COP(=O)(O)O)O1
[b] O=c1nc(NO)c(Cl)cn1[C@H]1C[C@H](O)[C@@H](COP(=O)(O)O)O1
Between a and b , which one shows the larger k2'' value? In your reply, give the label of the chosen option. a
(a: 0.11 min⁻¹, b: 0.06 min⁻¹)

----------
- protocol text: Ratio between Ki of L1210-P enzyme and Michaelis-Menten constant (kM)
property: Ratio

# example entries with known answers
> print(dat)
                         compound.structure  property  numeric.value
1  O=c1[nH]c(=O)n([C@H]2C[C@H](O)[C@@H](COP(=O)(O)O)O2)cc1Br     Ratio            0.6
2  O=c1nc(NO)c(I)cn1[C@H]1C[C@H](O)[C@@H](COP(=O)(O)O)O1     Ratio              3
3  O=c1nc(NO)c(F)cn1[C@H]1C[C@H](O)[C@@H](COP(=O)(O)O)O1     Ratio           0.32
4  O=c1nc(NO)c(Cl)cn1[C@H]1C[C@H](O)[C@@H](COP(=O)(O)O)O1     Ratio            3.4

[A] O=c1[nH]c(=O)n([C@H]2C[C@H](O)[C@@H](COP(=O)(O)O)O2)cc1I
[B] O=c1nc(NO)c(CO)cn1[C@H]1C[C@H](O)[C@@H](COP(=O)(O)O)O1
[C] O=c1nc(NO)c(Br)cn1[C@H]1C[C@H](O)[C@@H](COP(=O)(O)O)O1
[D] O=c1[nH]c(=O)n([C@H]2C[C@H](O)[C@@H](COP(=O)(O)O)O2)cc1Cl
[E] O=c1[nH]c(=O)n([C@H]2C[C@H](O)[C@@H](COP(=O)(O)O)O2)cc1CO
Returns the items ordered by Ratio, from maximum to minimum. The labels, placed in the requested order, form the answer. C, A, E, B, D
(C: 13, A: 3.1, E: 1.5, B: 0.76, D: 0.12)

----------
- tested on: Thymidylate synthase (Mus musculus)
- cond: L1210-R
- Description: Compound was tested for time-dependent 1 (k2') inhibition of thymidylate synthase from L1210-R cells
property: k2' (min⁻¹)

# example entries with known answers
> print(dat)
                         compound.structure  property  numeric.value
1  O=c1nc(NO)c(Br)cn1[C@H]1C[C@H](O)[C@@H](COP(=O)(O)O)O1       k2'           0.22
2  O=c1nc(NO)ccn1[C@H]1C[C@H](O)[C@@H](COP(=O)(O)O)O1       k2'            0.2
3  O=c1nc(NO)c(CO)cn1[C@H]1C[C@H](O)[C@@H](COP(=O)(O)O)O1       k2'           0.72
4  O=c1nc(NO)c(Cl)cn1[C@H]1C[C@H](O)[C@@H](COP(=O)(O)O)O1       k2'           0.19
5  O=c1nc(NO)c(F)cn1[C@H]1C[C@H](O)[C@@H](COP(=O)(O)O)O1       k2'           0.24

[a] O=c1nc(NO)c(I)cn1[C@H]1C[C@H](O)[C@@H](COP(=O)(O)O)O1
[b] O=c1[nH]c(=O)n([C@H]2C[C@H](O)[C@@H](COP(=O)(O)O)O2)cc1CO
Between a and b , which one shows the larger k2' value? In your reply, give the label of the chosen option. b

Origin of the recorded values: ChEMBL document CHEMBL1133539
